substrate: CC(=O)CC(=O)SCCNC(=O)CCNC(=O)[C@H](O)C(C)(C)COP(=O)(O)OP(=O)(O)OC[C@H]1O[C@@H](n2cnc3c(N)ncnc32)[C@H](O)[C@@H]1OP(=O)(O)O; test: purified protein; assay type: biochemical, Caenorhabditis elegans; settings: 100 µM NADH (saturating), 0.1 M citrate/phosphate pH 7.0, 0.1 mM dithiothreitol, 298 K, 23 nM protein, AACoA 30-70 µM, 25.0 °C
Measure Name: Km (µM)
Answers are plain numbers, in µM.

Prompt line: What value of Km has been reported for the following protein? 3-hydroxyacyl-CoA dehydrogenase from C. elegans, wild type (enzyme, Caenorhabditis elegans, 3-hydroxyacyl-CoA dehydrogenase (cHAD), Caenorhabditis elegans, WormBase WBGene00010035, GenBank CAA80153.1; N-terminal domain 9-194, loop 195-201 and C-terminal domain 202-297 described in the structure; vector pEXS-CG (derived from pET-22b(+)); also called cHAD; wild type cHAD; not shown: GST, C-terminal, cleaved) MFTAKCAMQNIRNVAIVGSGQMGSGIAQVTASSGFNVMLADVNKKALDRAMKAISQSVTHLSKKQKGTDKEKSDFVTLTMSRIKTCNNVSTAVADADLIIEAAIENIDLKRGIFAQIEQSCKKDSILTTNTSSFLLEDVAKGLQDKTRFGGLHFFNPVPVMKLLEVIRSDDTSDETYATLIKFGTAVGKTTVACKDSPGFIVNRLLIPYFFEAARMYERGDASMTDIDEAMKLGAGHPMGPFELADYIGLDTVKFVMDGWAAKYPEVQLFEASPLVDKLVAEGKLGRKTGDGFYSYKK
Response line: 72.0
